Provenance of the data: patent US8563714B2

Target: UniProtKB P25089
Sequence (P25089 whole entry): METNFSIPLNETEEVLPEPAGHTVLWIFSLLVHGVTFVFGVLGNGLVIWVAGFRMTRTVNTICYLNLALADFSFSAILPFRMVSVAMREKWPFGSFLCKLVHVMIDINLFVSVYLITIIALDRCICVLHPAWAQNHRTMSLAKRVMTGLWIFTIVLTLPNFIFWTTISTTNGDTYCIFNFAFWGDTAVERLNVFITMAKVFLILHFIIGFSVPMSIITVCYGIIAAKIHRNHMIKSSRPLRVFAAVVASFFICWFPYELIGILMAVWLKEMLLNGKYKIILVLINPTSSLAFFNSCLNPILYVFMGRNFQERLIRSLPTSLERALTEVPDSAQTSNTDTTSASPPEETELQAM
Test: Intracellular calcium measurements (FLIPR), agonistic activity in HEK293-hFPRL2-Gα16 cells
Conditions: Fluo-4 calcium FLIPR, normalized to GLY14-Humanin 100 nM
Measured log10 of EC50, listed per entry.
Quantity Name: log10 of EC50 (log10 of the value in nM)

Molecule: O=C(NCCCCN1CCCC1)[C@H]1[C@H](C(=O)NCc2ccc(Br)cc2F)[C@@H]2CC[C@H]1C21CC1
Quantity Name: log10 of EC50
Endpoint Result: 1.26
--
Molecule: CC(NC(=O)C1C(C(=O)NCCCCN2CCCC2)C2C=CC1C21CC1)c1ccc(Br)cc1 (mixture of isomers)
Quantity Name: log10 of EC50
Endpoint Result: 1.90
--
Molecule: CN(C)C(=O)CCNC(=O)[C@H]1[C@H](C(=O)Nc2ccc(Br)cc2)[C@@H]2C=C[C@H]1C21CC1 (racemic)
Quantity Name: log10 of EC50
Endpoint Result: 3.32
--
Molecule: O=C(NCCCCN1CCCC1)[C@H]1[C@H](C(=O)Nc2cccc3nonc23)[C@@H]2C=C[C@H]1C21CC1 (racemic)
Quantity Name: log10 of EC50
Endpoint Result: 2.85
--
Molecule: O=C(NCCCCN1CCCC1)[C@H]1[C@H](C(=O)NCc2cccc(Br)c2)[C@@H]2C=C[C@H]1C21CC1 (racemic)
Quantity Name: log10 of EC50
Endpoint Result: 1.97
--
Molecule: O=C(N[C@@H]1CC[C@@H](CN2CCCC2)OC1)[C@H]1[C@H](C(=O)Nc2ccc(Br)cc2)[C@@H]2C=C[C@H]1C21CC1
Quantity Name: log10 of EC50
Endpoint Result: 2.47
--
Molecule: NCCCCCNC(=O)[C@H]1[C@H](C(=O)NCc2ccc(Br)cc2F)[C@@H]2CC[C@H]1C21CC1
Quantity Name: log10 of EC50
Endpoint Result: 2.97
--
Molecule: NCCCCNC(=O)[C@H]1[C@H](C(=O)Nc2ccc(Br)cc2)[C@@H]2C=C[C@H]1C21CC1 (relative stereo)
Quantity Name: log10 of EC50
Endpoint Result: 3.06
--
Molecule: O=C(NCCCCN1CCCC1)[C@H]1[C@H](C(=O)NCc2cc(F)c(Br)cc2F)[C@@H]2C=C[C@H]1C21CC1
Quantity Name: log10 of EC50
Endpoint Result: 1.81
--
Molecule: O=C(NCC(c1ccccc1)N1CCOCC1)C1C(C(=O)Nc2ccc(Br)cc2)C2C=CC1C21CC1 (mixture of isomers)
Quantity Name: log10 of EC50
Endpoint Result: 3.36
--
Molecule: CC(=O)c1ccc(CNC(=O)[C@H]2[C@H](C(=O)NCCCCN3CCCC3)[C@H]3C=C[C@@H]2C32CC2)o1
Quantity Name: log10 of EC50
Endpoint Result: 2.81
--
Molecule: O=C(NCCCN1CCCC1)[C@H]1[C@H](C(=O)NCc2ccc(Br)cc2)[C@@H]2C=C[C@H]1C21CC1 (racemic)
Quantity Name: log10 of EC50
Endpoint Result: 2.47

* * *

Measured pEC50, listed per entry.
Target: UniProt:P25089
Experiment: Intracellular calcium measurements (FLIPR), agonistic activity in HEK293-hFPRL2-Gα16 cells
Settings: Fluo-4 calcium FLIPR, normalized to GLY14-Humanin 100 nM
pEC50: −log10 of the molar value.

Molecule: O=C(NCC1(O)CCCCC1)[C@H]1[C@H](C(=O)Nc2ncc(Br)s2)[C@@H]2CC[C@H]1C21CC1 [Example 409]
Study Target: UniProt:P25089
Value Operator: =
pEC50: 5.04
//
Molecule: O=C(NCC1CCNCC1)[C@H]1[C@H](C(=O)Nc2ncc(Br)s2)[C@@H]2CC[C@H]1C21CC1 [Example 337]
Study Target: UniProt:P25089
Value Operator: =
pEC50: 5.92
//
Molecule: CN(C)CCNC(=O)[C@H]1[C@H](C(=O)Nc2ccc(Br)cc2)[C@@H]2C=C[C@H]1C21CC1 [Example 6]
Study Target: UniProt:P25089
Value Operator: =
pEC50: 5.90
//
Molecule: NCCCCNC(=O)[C@H]1[C@H](C(=O)NCc2ccc(Br)cc2F)[C@@H]2C=C[C@H]1C21CC1 [Example 320]
Study Target: UniProt:P25089
Value Operator: =
pEC50: 6.33
//
Molecule: CC(NC(=O)C1C(C(=O)Nc2ccc(Br)cc2)C2C=CC1C21CC1)C(N)=O (mixture of isomers) [Example 65]
Study Target: UniProt:P25089
Value Operator: <
pEC50: 4.60
//
Molecule: CCCCCNC(=O)[C@H]1[C@H](C(=O)Nc2ccc(Br)cc2)[C@@H]2C=C[C@H]1C21CC1 (racemic) [Example 67]
Study Target: UniProt:P25089
Value Operator: <
pEC50: 4.60
//
Molecule: CCSCCNC(=O)[C@H]1[C@H](C(=O)Nc2ccc(Br)cc2)[C@@H]2C=C[C@H]1C21CC1 (racemic) [Example 24]
Study Target: UniProt:P25089
Value Operator: =
pEC50: 5.39
//
Molecule: CC(C)(C)OC(=O)CCCNC(=O)[C@H]1[C@H](C(=O)Nc2ccc(Br)cc2)[C@@H]2C=C[C@H]1C21CC1 (racemic) [Example 89]
Study Target: UniProt:P25089
Value Operator: =
pEC50: 5.61
//
Molecule: CN(C[C@H]1[C@H](C(=O)Nc2ccc(Br)cc2)[C@@H]2C=C[C@H]1C21CC1)C(=O)Cc1ccccc1Cl (racemic) [Example 182]
Study Target: UniProt:P25089
Value Operator: =
pEC50: 5.69
//
Molecule: COc1ccc(NC(=O)[C@H]2[C@H](C(=O)NCCCCN3CCCC3)[C@H]3C=C[C@@H]2C32CC2)cn1 (racemic) [Example 250]
Study Target: UniProt:P25089
Value Operator: =
pEC50: 6.13
//
Molecule: NCC1CCC(NC(=O)C2C(C(=O)Nc3ccc(Br)cc3)C3C=CC2C32CC2)CC1 (single isomer, unassigned) [Example 421]
Study Target: UniProt:P25089
Value Operator: =
pEC50: 5.77
//
Molecule: O=C(NCCCCN1CCCC1)[C@H]1[C@H](C(=O)Nc2c(F)cc(Br)cc2F)[C@@H]2C=C[C@H]1C21CC1 [Example 315]
Study Target: UniProt:P25089
Value Operator: =
pEC50: 6.53
//
Molecule: COC(=O)CCNC(=O)[C@H]1[C@H](C(=O)NCCCCN2CCCC2)[C@H]2C=C[C@@H]1C21CC1 (racemic) [Example 124]
Study Target: UniProt:P25089
Value Operator: =
pEC50: 5.94
//
Molecule: O=C(NCCCCN1CCCC1)C1C(C(=O)Nc2ccc(Br)nc2)C2C=CC1C21CC1 (racemic) [Example 114]
Study Target: UniProt:P25089
Value Operator: =
pEC50: 6.27
//
Molecule: O=C(NCCCCN1CCC(F)(F)C1)[C@H]1[C@H](C(=O)Nc2ccc(Br)cc2)[C@@H]2C=C[C@H]1C21CC1 [Example 401]
Study Target: UniProt:P25089
Value Operator: =
pEC50: 6.29
//
Molecule: NCc1cccc(CNC(=O)[C@H]2[C@H](C(=O)NCc3ccc(Br)cc3)[C@@H]3C=C[C@H]2C32CC2)c1 (racemic) [Example 308]
Study Target: UniProt:P25089
Value Operator: =
pEC50: 6.31
//
Molecule: Cc1ccc(CNC(=O)[C@H]2[C@H](C(=O)NCCCCN3CCCC3)[C@H]3C=C[C@@H]2C32CC2)cc1 (racemic) [Example 123]
Study Target: UniProt:P25089
Value Operator: =
pEC50: 6.48
//
Molecule: COc1c(F)cc(CNC(=O)[C@H]2[C@H](C(=O)NCCCCN3CCCC3)[C@H]3C=C[C@@H]2C32CC2)cc1F (racemic) [Example 229]
Study Target: UniProt:P25089
Value Operator: =
pEC50: 7.17
//
Molecule: NC(=O)CCCNC(=O)[C@H]1[C@H](C(=O)Nc2ccc(Br)cc2)[C@@H]2C=C[C@H]1C21CC1 (racemic) [Example 205]
Study Target: UniProt:P25089
Value Operator: =
pEC50: 5.32
//
Molecule: O=C(CCc1c[nH]c2ccccc12)NC[C@H]1[C@H](C(=O)Nc2ccc(Br)cc2)[C@@H]2C=C[C@H]1C21CC1 (racemic) [Example 186]
Study Target: UniProt:P25089
Value Operator: =
pEC50: 5.05
//
Molecule: Cc1ccncc1C(=O)NC[C@H]1[C@H](C(=O)Nc2ccc(Br)cc2)[C@@H]2C=C[C@H]1C21CC1 (racemic) [Example 171]
Study Target: UniProt:P25089
Value Operator: =
pEC50: 5.49
//
Molecule: O=C(NC1CCNCC1)[C@H]1[C@H](C(=O)Nc2ccc(Br)cc2)[C@@H]2C=C[C@H]1C21CC1 (racemic) [Example 3]
Study Target: UniProt:P25089
Value Operator: =
pEC50: 5.70
//
Molecule: O=C(NCCCCN1CCCC1)[C@H]1[C@H](C(=O)NCCc2ccc(Br)cc2)[C@@H]2C=C[C@H]1C21CC1 (racemic) [Example 379]
Study Target: UniProt:P25089
Value Operator: =
pEC50: 8.18
//
Molecule: O=C(NCCCn1ccnc1)[C@H]1[C@H](C(=O)Nc2ccc(Br)cc2)[C@@H]2C=C[C@H]1C21CC1 (racemic) [Example 40]
Study Target: UniProt:P25089
Value Operator: =
pEC50: 6.07
//
Molecule: CCN1CCCC1CNC(=O)C1C(C(=O)Nc2ccc(Br)cc2)C2C=CC1C21CC1 (mixture of isomers) [Example 54]
Study Target: UniProt:P25089
Value Operator: =
pEC50: 5.59
